# Test system: A549
# Assay Overview: cells
# Assay type: functional, cell-based
# Assay Context: Homo sapiens, A549, 72 h
# Description: Antiproliferative activity against human A549 cells harboring K-ras G12S mutant assessed as inhibition of cell growth incubated for 72 hrs by MTS assay
Value Type: IC50

                                   compound  data_value
0  COc1cc2ncnc(Nc3ccc(F)c(Cl)c3)c2cc1NC(=O)/C=C/CN1CCCCC1 [DACOMITINIB ANHYDROUS]     > 10 µM

###

# System: BaF3
# Assay Overview: cells
# Format: functional, cell-based
# Assay Context: Mus musculus, BaF3, 72 h
# Description: Cytotoxicity against mouse BaF3 cells harboring EGFR Del L747_P753InsS/T790M mutant assessed as inhibition of cell growth incubated for 72 hrs by MTS assay
pIC50: −log10 of the molar value.
Value Type: pIC50

In [3]: df
Out[3]:
                                   compound  system_name  data_value
0  COc1cc2ncnc(Nc3ccc(F)c(Cl)c3)c2cc1NC(=O)/C=C/CN1CCCCC1 [DACOMITINIB ANHYDROUS]         BaF3        6.80

###

# System Name: MAP kinase-activated protein kinase 2 (Homo sapiens)
# Sequence (P49137 whole entry): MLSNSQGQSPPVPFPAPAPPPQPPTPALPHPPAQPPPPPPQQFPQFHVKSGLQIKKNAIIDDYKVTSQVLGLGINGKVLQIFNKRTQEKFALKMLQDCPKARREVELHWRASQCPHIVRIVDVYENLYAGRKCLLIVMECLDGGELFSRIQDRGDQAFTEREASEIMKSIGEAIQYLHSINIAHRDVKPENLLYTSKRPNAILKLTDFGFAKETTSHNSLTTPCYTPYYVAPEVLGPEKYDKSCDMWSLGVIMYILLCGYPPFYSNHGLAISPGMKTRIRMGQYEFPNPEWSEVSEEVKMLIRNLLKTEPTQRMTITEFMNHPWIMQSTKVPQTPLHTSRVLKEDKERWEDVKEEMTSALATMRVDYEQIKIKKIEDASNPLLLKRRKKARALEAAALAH
# Assay Overview: Inhibition of recombinant MAPKAP-K2 (unknown origin)
Value Type: IC50

>>> df
                                   compound                               system_name  data_value
0  COc1cc2ncnc(Nc3ccc(F)c(Cl)c3)c2cc1NC(=O)/C=C/CN1CCCCC1 [DACOMITINIB ANHYDROUS]  MAP kinase-activated protein kinase 2 (Homo sapiens)     > 10 µM

###

# System Name: UniProtKB P49841
# Sequence (P49841 whole entry): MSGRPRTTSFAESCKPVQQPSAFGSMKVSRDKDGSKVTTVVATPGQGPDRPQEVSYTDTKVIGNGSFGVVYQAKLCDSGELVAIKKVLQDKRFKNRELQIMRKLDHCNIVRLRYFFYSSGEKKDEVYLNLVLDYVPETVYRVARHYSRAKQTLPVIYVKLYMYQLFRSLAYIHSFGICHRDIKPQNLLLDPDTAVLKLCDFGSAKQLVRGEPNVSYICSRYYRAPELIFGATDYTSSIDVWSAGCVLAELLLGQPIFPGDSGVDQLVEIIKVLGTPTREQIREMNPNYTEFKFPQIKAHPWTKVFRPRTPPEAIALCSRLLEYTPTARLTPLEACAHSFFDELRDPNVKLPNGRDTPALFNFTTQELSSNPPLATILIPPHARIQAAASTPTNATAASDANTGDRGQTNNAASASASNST
# Assay Overview: Inhibition of recombinant GSK3b (unknown origin)
pIC50: −log10 of the molar value.
Value Type: pIC50

In [3]: df
Out[3]:
                                   compound       system_name  data_value
0  COc1cc2ncnc(Nc3ccc(F)c(Cl)c3)c2cc1NC(=O)/C=C/CN1CCCCC1 [DACOMITINIB ANHYDROUS]  UniProtKB P49841      < 5.00

###

# System Name: Ribosomal protein S6 kinase alpha-5 (Homo sapiens)
# Sequence (O75582 whole entry): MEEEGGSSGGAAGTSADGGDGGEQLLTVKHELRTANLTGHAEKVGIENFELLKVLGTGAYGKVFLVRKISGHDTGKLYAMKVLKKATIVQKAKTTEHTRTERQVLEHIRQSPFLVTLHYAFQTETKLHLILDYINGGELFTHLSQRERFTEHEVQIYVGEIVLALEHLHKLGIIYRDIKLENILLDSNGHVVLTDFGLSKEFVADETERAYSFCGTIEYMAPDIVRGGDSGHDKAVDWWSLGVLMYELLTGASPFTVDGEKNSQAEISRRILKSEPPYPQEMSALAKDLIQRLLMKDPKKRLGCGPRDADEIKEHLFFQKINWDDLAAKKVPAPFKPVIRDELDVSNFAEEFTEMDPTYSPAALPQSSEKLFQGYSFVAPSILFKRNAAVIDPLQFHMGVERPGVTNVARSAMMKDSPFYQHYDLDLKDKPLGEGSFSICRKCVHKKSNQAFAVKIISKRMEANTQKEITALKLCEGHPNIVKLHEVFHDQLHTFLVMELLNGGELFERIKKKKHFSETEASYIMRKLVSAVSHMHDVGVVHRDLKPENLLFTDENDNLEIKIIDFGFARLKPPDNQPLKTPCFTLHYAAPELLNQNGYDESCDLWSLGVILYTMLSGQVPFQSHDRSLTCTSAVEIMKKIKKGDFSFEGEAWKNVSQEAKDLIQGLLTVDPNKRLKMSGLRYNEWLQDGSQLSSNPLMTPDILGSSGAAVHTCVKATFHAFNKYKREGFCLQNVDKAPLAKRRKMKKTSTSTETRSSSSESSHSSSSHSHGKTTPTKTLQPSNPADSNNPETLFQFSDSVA
# Assay Overview: Inhibition of recombinant MSK1 (unknown origin)
pIC50: −log10 of the molar value.
Value Type: pIC50

In [3]: df
Out[3]:
                                   molecule  value_type  data_value
0  COc1cc2ncnc(Nc3ccc(F)c(Cl)c3)c2cc1NC(=O)/C=C/CN1CCCCC1 [DACOMITINIB ANHYDROUS]       pIC50      < 5.00

###

# System Name: Serine/threonine-protein kinase Sgk1 (Homo sapiens)
# Sequence (O00141 whole entry): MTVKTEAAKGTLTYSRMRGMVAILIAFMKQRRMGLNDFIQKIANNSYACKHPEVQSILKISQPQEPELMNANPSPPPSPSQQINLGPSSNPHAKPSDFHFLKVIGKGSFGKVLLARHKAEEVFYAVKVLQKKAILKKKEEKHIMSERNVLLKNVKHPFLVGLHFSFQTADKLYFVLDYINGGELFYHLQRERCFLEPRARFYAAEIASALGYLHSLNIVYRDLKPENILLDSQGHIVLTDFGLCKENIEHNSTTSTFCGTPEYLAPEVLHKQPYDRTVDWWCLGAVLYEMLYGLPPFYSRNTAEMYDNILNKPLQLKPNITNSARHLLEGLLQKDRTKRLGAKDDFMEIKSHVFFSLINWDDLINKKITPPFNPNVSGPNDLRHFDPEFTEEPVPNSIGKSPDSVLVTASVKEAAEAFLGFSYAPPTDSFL
# Assay Overview: Inhibition of recombinant SGK (unknown origin)
Value Type: IC50

>>> df
                                   compound  data_value
0  COc1cc2ncnc(Nc3ccc(F)c(Cl)c3)c2cc1NC(=O)/C=C/CN1CCCCC1 [DACOMITINIB ANHYDROUS]     > 10 µM

###

# System Name: Mitogen-activated protein kinase 11 (Homo sapiens, UniProt Q15759)
# Sequence (Q15759 whole entry): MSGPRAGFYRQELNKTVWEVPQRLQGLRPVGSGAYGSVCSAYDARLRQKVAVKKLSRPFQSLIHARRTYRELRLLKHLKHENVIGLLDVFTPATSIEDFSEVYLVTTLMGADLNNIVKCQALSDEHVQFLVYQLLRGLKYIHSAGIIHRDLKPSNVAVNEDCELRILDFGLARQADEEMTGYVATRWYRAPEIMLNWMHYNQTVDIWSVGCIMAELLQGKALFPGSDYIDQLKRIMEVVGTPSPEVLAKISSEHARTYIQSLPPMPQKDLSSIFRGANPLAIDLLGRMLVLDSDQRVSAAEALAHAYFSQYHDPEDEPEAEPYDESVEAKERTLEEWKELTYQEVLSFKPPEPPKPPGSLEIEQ
# Assay Overview: Inhibition of recombinant SAPK2b/p38beta2 (unknown origin)
pIC50: −log10 of the molar value.
Value Type: pIC50

>>> df
                                   compound                               system_name  value_type  data_value
0  COc1cc2ncnc(Nc3ccc(F)c(Cl)c3)c2cc1NC(=O)/C=C/CN1CCCCC1 [DACOMITINIB ANHYDROUS]  Mitogen-activated protein kinase 11 (Homo sapiens, UniProt Q15759)       pIC50      < 5.00

###

# System Name: AMP-activated protein kinase, AMPK
# Assay Overview: Inhibition of recombinant AMPK (unknown origin)
# Assay type: protein-complex assay, Homo sapiens
pIC50: −log10 of the molar value.
Value Type: pIC50

>>> df
                                   molecule  value_type  data_value
0  COc1cc2ncnc(Nc3ccc(F)c(Cl)c3)c2cc1NC(=O)/C=C/CN1CCCCC1 [DACOMITINIB ANHYDROUS]       pIC50      < 5.00

###

# Assay Overview: Inhibition of recombinant Akt (unknown origin)
# Design: species or system Homo sapiens
Value Type: IC50

>>> print(df.to_string())
                                   compound  value_type  data_value
0  COc1cc2ncnc(Nc3ccc(F)c(Cl)c3)c2cc1NC(=O)/C=C/CN1CCCCC1 [DACOMITINIB ANHYDROUS]        IC50     > 40 µM

###

# System Name: Serine/threonine-protein kinase Chk1 (Homo sapiens, UniProt O14757)
# Sequence (O14757 whole entry): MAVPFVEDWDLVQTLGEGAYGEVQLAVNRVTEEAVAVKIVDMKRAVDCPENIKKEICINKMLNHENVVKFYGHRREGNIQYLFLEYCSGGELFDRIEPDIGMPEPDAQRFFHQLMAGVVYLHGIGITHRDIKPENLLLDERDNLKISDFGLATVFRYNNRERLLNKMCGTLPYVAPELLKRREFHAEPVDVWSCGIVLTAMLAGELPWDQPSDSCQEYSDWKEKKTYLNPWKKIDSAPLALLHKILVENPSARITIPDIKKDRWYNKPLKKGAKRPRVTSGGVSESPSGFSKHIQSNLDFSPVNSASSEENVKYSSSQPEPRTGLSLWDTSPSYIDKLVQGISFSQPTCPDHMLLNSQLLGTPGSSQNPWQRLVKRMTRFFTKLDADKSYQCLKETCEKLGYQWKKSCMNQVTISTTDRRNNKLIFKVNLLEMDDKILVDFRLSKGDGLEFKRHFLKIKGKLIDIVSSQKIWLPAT
# Assay Overview: Inhibition of recombinant CHK1 (unknown origin)
Value Type: IC50

>>> print(df.to_string())
                                   compound  data_value
0  COc1cc2ncnc(Nc3ccc(F)c(Cl)c3)c2cc1NC(=O)/C=C/CN1CCCCC1 [DACOMITINIB ANHYDROUS]     > 10 µM

###

# System Name: Rho-associated protein kinase 2 (Homo sapiens, UniProt O75116)
# Assay Overview: Inhibition of recombinant ROCK-II (unknown origin)
pIC50: −log10 of the molar value.
Value Type: pIC50

>>> df
                                   compound                               system_name  value_type  data_value
0  COc1cc2ncnc(Nc3ccc(F)c(Cl)c3)c2cc1NC(=O)/C=C/CN1CCCCC1 [DACOMITINIB ANHYDROUS]  Rho-associated protein kinase 2 (Homo sapiens, UniProt O75116)       pIC50      < 5.00

###

# System Name: Tyrosine-protein kinase CSK (Homo sapiens, UniProt P41240)
# Sequence (P41240 whole entry): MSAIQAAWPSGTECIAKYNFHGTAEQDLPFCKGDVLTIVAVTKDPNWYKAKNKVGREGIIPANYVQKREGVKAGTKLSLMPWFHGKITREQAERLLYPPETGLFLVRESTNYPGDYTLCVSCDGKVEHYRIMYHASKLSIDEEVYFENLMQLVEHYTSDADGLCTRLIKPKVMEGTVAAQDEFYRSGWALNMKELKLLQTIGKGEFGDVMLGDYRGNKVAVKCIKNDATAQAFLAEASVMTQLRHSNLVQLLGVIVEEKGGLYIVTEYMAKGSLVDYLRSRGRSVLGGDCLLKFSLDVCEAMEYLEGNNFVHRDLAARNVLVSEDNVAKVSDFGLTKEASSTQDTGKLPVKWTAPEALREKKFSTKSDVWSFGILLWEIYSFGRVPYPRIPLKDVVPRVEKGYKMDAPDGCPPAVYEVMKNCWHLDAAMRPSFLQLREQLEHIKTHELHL
# Assay Overview: Inhibition of recombinant CSK (unknown origin)
pIC50: −log10 of the molar value.
Value Type: pIC50

>>> df
                                   compound  data_value
0  COc1cc2ncnc(Nc3ccc(F)c(Cl)c3)c2cc1NC(=O)/C=C/CN1CCCCC1 [DACOMITINIB ANHYDROUS]      < 5.00

###

# System Name: Receptor tyrosine-protein kinase erbB-2 (Mus musculus)
# Sequence (P70424 whole entry): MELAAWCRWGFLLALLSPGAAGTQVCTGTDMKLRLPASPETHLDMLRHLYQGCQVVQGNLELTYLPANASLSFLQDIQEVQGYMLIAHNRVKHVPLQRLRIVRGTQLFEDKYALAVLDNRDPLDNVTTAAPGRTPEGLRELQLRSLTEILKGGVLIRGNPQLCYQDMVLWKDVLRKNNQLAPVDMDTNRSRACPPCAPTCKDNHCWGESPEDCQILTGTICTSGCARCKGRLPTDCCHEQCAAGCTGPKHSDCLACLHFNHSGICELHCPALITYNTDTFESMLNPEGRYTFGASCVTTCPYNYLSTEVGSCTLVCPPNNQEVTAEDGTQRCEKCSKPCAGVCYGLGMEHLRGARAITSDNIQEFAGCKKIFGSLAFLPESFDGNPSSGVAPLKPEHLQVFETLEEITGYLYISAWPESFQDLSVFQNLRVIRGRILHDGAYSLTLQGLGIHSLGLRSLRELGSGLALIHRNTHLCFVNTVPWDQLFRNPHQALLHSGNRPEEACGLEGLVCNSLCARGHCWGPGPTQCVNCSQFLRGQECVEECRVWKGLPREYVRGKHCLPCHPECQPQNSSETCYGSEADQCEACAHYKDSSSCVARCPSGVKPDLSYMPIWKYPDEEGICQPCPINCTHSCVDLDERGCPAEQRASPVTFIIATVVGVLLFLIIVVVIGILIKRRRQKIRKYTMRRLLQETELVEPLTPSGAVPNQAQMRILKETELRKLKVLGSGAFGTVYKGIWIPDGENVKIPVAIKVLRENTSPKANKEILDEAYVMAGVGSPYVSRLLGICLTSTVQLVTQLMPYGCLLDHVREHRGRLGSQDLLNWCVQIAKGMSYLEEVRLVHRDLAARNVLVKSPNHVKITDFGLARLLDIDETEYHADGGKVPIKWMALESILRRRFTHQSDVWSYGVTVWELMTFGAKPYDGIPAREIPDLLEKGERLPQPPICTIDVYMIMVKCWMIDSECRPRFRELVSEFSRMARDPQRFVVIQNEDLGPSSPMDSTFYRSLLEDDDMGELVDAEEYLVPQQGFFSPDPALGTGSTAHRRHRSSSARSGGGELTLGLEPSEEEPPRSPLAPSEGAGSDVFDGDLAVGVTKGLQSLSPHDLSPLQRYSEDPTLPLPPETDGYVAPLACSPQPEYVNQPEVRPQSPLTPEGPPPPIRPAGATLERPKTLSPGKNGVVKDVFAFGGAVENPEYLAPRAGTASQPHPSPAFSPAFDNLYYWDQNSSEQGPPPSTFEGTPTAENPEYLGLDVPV
# Assay Overview: Inhibition of ERBB2 expressed in mouse NIH3T3 cells
Reported IC50 values for a set of molecules
Value Type: IC50 (nM)

In [3]: df
Out[3]:
                                   molecule                               system_name  unit_descriptor  qualifier_sign  data_value
0  COc1cc2ncnc(Nc3ccc(F)c(Cl)c3)c2cc1OCCCN1CCOCC1  Receptor tyrosine-protein kinase erbB-2 (Mus musculus)               nM               >         500
1  C#Cc1cccc(Nc2ncnc3cc(OCCOC)c(OCCOC)cc23)c1  Receptor tyrosine-protein kinase erbB-2 (Mus musculus)               nM               =         299
2  COc1cc2ncnc(Nc3ccc(F)c(Cl)c3)c2cc1NC(=O)/C=C/CN1CCCCC1 [DACOMITINIB ANHYDROUS]  Receptor tyrosine-protein kinase erbB-2 (Mus musculus)               nM               =          41

###

# System: NCI-H3255
# Assay Overview: cells
# Assay type: functional, cell-based
# Assay Context: Homo sapiens, NCI-H3255, 72 h
# Description: Antiproliferative activity against human NCI-H3255 cells harboring EGFR L858R mutant transfected with EGFR Del L747_S752,P753S/T790M mutant assessed as inhibition of cell growth incubated for 72 hrs by MTS assay
Value Type: IC50 (nM)

                                   compound  system_name  value_type  unit_descriptor  data_value
0  COc1cc2ncnc(Nc3ccc(F)c(Cl)c3)c2cc1NC(=O)/C=C/CN1CCCCC1 [DACOMITINIB ANHYDROUS]    NCI-H3255        IC50               nM        1570

###

# System: NCI-H3255
# Assay Overview: cells
# Format: functional, cell-based
# Assay Context: Homo sapiens, NCI-H3255, 72 h
# Description: Antiproliferative activity against human NCI-H3255 cells harboring EGFR L858R mutant transfected with GFP assessed as inhibition of cell growth incubated for 72 hrs by MTS assay
pIC50: −log10 of the molar value.
Value Type: pIC50

In [3]: df
Out[3]:
                                   molecule  data_value
0  COc1cc2ncnc(Nc3ccc(F)c(Cl)c3)c2cc1NC(=O)/C=C/CN1CCCCC1 [DACOMITINIB ANHYDROUS]        8.15

###

# System: BaF3
# Assay Overview: cells
# Assay type: functional, cell-based
# Assay Context: Mus musculus, BaF3, 72 h
# Description: Cytotoxicity against mouse BaF3 cells harboring EGFR vIII mutant assessed as inhibition of cell growth incubated for 72 hrs by MTS assay
pIC50: −log10 of the molar value.
Value Type: pIC50

                                   molecule  system_name  data_value
0  COc1cc2ncnc(Nc3ccc(F)c(Cl)c3)c2cc1NC(=O)/C=C/CN1CCCCC1 [DACOMITINIB ANHYDROUS]         BaF3        8.92
